test system: MEF; experiment: Induction of apoptosis in Bax(-/-)/Bak(-/-) MEF assessed as late apoptotic cells at 20 uM after 24 hrs using annexin V-FITC and propidium iodide staining by flow cytometry (reference value: 3.3%); assay type: functional, Mus musculus
measured.endpoint: Activity (%)
# unit: % | format: bare number

Incoming: Could you please provide reported Activity for C=C1C(=O)[C@]23CC[C@H]1C[C@H]2[C@@]12CCC[C@@]4(C)C5OCCN5[C@H]1O[C@@H]3C[C@@H]24 (some centres undefined) ? Thanks!
Outgoing: 86.2

Incoming: Give the reported value of Activity for this record: C=C1C(=O)[C@]23CC[C@H]1C[C@H]2[C@@]12CCC[C@@](C)(CN(CCO)C1)[C@H]2CC3=O
Outgoing: 52.2

Incoming: Identify measured Activity corresponding to C=C1C(=O)[C@]23CC[C@H]1C[C@H]2[C@@]12CCC[C@@](C)(CN(CCO)C1)[C@H]2C(=C)C3=O
Outgoing: 76.8

Incoming: Retrieve Activity measured for C=C1C(=O)[C@]23CC[C@H]1C[C@H]2[C@@]12CCC[C@@](C)(C(=O)N4CCO[C@H]41)[C@H]2C[C@H]3O and print it.
Outgoing: 68.3
